These measurements were taken from paper PMC9430360.

molecular target: GII.1/EBHSV G104 3CLpro (European brown hare syndrome virus, UniProt Q96725); assay: FRET assay, 3CLpro of GII.1/EBHSV G104 strain
Sequence (Q96725 1102-1244 limits assumed): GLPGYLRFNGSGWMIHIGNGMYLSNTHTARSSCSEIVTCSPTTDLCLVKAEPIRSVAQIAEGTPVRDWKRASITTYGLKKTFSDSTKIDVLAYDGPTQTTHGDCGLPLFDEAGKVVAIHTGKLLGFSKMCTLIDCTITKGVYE
pIC50: −log10 of the molar value.
Would you mind labelling by pIC50? At or over 7 is TRUE, under is FALSE.

Field: example entries. Status: answers known.
| compound | studyTarget | answerLabel |
| --- | --- | --- |
| CC(C)CC(NC(=O)C(Cc1cccc2ccccc12)NC(=O)OCc1ccccc1)C(=O)NC(C=O)CC1CCNC1=O (centres unmarked) | GII.1/EBHSV G104 3CLpro (European brown hare syndrome virus, UniProt Q96725) | FALSE |
| O=C(N[C@@H](CC1CCCCC1)C(=O)N[C@H](C[C@@H]1CCNC1=O)C(=O)C(=O)NC1CC1)OCc1cccc(Cl)c1 | GII.1/EBHSV G104 3CLpro (European brown hare syndrome virus, UniProt Q96725) | FALSE |
| O=C[C@@H](C[C@@H]1CCNC1=O)NC(=O)[C@H](CC1CCCCC1)NC(=O)OCc1cccc(Cl)c1 | GII.1/EBHSV G104 3CLpro (European brown hare syndrome virus, UniProt Q96725) | TRUE |

Lab note: next compound to report on.
Prompt line: Test whether the compound CC(C)C[C@H](NC(=O)OCc1ccccc1)C(=O)N[C@H](C[C@@H]1CCNC1=O)C(O)S(=O)(=O)O (some centres unmarked) records pIC50 of 7 or higher.
Response line: FALSE
